Entries annotated with measured protein stability index
B1: ZNF277 (parent)
chain: ILREELQKQRLREILEQQQQERND

Variants of: B1
Experiment: protein stability index of a GFP-peptide fusion (GPS, HEK-293T) (PSI 1-6); higher = more stable;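 note: lentivirally expressed fusions sorted by FACS into six bins by GFP to DsRed ratio, PSI derived from sequencing read proportions per bin multiplied by bin number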
Conditions: c terminus: a fixed tail appended

- changes: "R3F"
  protein stability index: 3.4
- changes: "L2C"
  protein stability index: 3.94
- changes: "Q18W"
  protein stability index: 4.15
- changes: "E21D"
  protein stability index: 4.22
- changes: "Q20F"
  protein stability index: 3.44
- changes: "D24F"
  protein stability index: 3.26
- changes: "R10L"
  protein stability index: 2.56
- changes: "K8C"
  protein stability index: 3.96
- changes: "Q19W"
  protein stability index: 2.85
- changes: "L11G"
  protein stability index: 5.22
- changes: "L2K"
  protein stability index: 5.45
- changes: "Q9R"
  protein stability index: 4.41
- changes: "E13M"
  protein stability index: 4.01
- changes: "L11C"
  protein stability index: 4.71
- changes: "D24S"
  protein stability index: 3.68
- changes: "L6N"
  protein stability index: 4.65
- changes: "N23K"
  protein stability index: 4.1
- changes: "Q20H"
  protein stability index: 3.94
- changes: "N23T"
  protein stability index: 4.37
- changes: "L15H"
  protein stability index: 5.11
- changes: "E16V"
  protein stability index: 3.9
- changes: "R22M"
  protein stability index: 4.45
- changes: "Q17A"
  protein stability index: 3.83
- changes: "Q17L"
  protein stability index: 4.29
- changes: "E4M"
  protein stability index: 3.75
- changes: "Q9M"
  protein stability index: 4.32
- changes: "R10A"
  protein stability index: 4.38
- changes: "E5G"
  protein stability index: 5.27
- changes: "L15A"
  protein stability index: 5.04
- changes: "R22F"
  protein stability index: 3.81
- changes: "D24M"
  protein stability index: 4.14
- changes: "L6T"
  protein stability index: 4.75
- changes: "E21P"
  protein stability index: 3.04
- changes: "Q19Y"
  protein stability index: 3.98
- changes: "Q20T"
  protein stability index: 3.29
- changes: "Q18R"
  protein stability index: 4.97
- changes: "K8D"
  protein stability index: 4.43
- changes: "Q17G"
  protein stability index: 4.25
- changes: "L15Y"
  protein stability index: 4.18
- changes: "E13G"
  protein stability index: 4.54
- changes: "Q9D"
  protein stability index: 4.98
- changes: "L11F"
  protein stability index: 4.09
- changes: "R22N"
  protein stability index: 4.75
- changes: "K8H"
  protein stability index: 4.41
- changes: "L15Q"
  protein stability index: 5.14
- changes: "L11W"
  protein stability index: 3.94
- changes: "I14M"
  protein stability index: 4.3
- changes: "N23H"
  protein stability index: 4.04
- changes: "D24I"
  protein stability index: 3.64
- changes: "R10C"
  protein stability index: 3.28
- changes: "L6Y"
  protein stability index: 4.22
- changes: "Q17C"
  protein stability index: 3.6
- changes: "Q20I"
  protein stability index: 4.36
- changes: "K8E"
  protein stability index: 5.3
- changes: "Q7E"
  protein stability index: 5.22
- changes: "E13H"
  protein stability index: 4.46
- changes: "L2T"
  protein stability index: 5.04
- changes: "R3E"
  protein stability index: 5.21
- changes: "Q20N"
  protein stability index: 4.3
- changes: "Q7P"
  protein stability index: 5
- changes: "K8V"
  protein stability index: 4.07
- changes: "I1F"
  protein stability index: 4.43
- changes: "Q18A"
  protein stability index: 3.98
- changes: "I1S"
  protein stability index: 5.12
- changes: "E5F"
  protein stability index: 2.35
- changes: "L2R"
  protein stability index: 5.03
- changes: "K8Q"
  protein stability index: 4.98
- changes: "E13P"
  protein stability index: 4.56
- changes: "L11P"
  protein stability index: 4.38
- changes: "R22L"
  protein stability index: 4.46
- changes: "K8G"
  protein stability index: 4.82
- changes: "L6G"
  protein stability index: 4.9
- changes: "R3A"
  protein stability index: 4.3
- changes: "L11Q"
  protein stability index: 5.05
- changes: "E13Y"
  protein stability index: 4.07
- changes: "I1N"
  protein stability index: 4.99
- changes: "K8F"
  protein stability index: 4.38
- changes: "D24W"
  protein stability index: 2.73
- changes: "I14T"
  protein stability index: 4.84
- changes: "L6R"
  protein stability index: 4.88
- changes: "Q20G"
  protein stability index: 4.22
- changes: "L15D"
  protein stability index: 4.77
- changes: "Q9L"
  protein stability index: 4.41
- changes: "E21G"
  protein stability index: 4.04
- changes: "I1M"
  protein stability index: 4.66
- changes: "R10I"
  protein stability index: 3.41
- changes: "K8R"
  protein stability index: 3.66
- changes: "R12V"
  protein stability index: 4.41
- changes: "R3I"
  protein stability index: 2.91
- changes: "D24P"
  protein stability index: 3.85
- changes: "Q19M"
  protein stability index: 3.35

The measured values listed here are drawn from the supplement of paper PMC10567573.
